Data provenance: patent US20040230057A1

# assay.notes: thermal gravimetric analysis
# Format: physicochemical
# study.conditions: temperature of a 5% thermal weight loss
endpoint.name: Thermal Breakdown Temperature (°C)
Report the value in °C with no unit label.

compound: CCCCN1C(=CC=Cc2ccc3ccccc3[n+]2CCCC)C(C)(C)c2c1ccc1ccccc21 [Experiment 3]
endpoint.name: Thermal Breakdown Temperature
test.value: 274.2
//
compound: CC[n+]1ccc(C=CC=C2N(C)c3ccc([N+](=O)[O-])cc3C2(C)C)c2ccccc21 [Experiment 6]
endpoint.name: Thermal Breakdown Temperature
test.value: 302.7
//
compound: CCCCN1C(=CC=Cc2cc[n+](CC)c3ccccc23)C(C)(C)c2cc(Cl)ccc21 [Experiment 5]
endpoint.name: Thermal Breakdown Temperature
test.value: 266.3
//
compound: CCCCN1C(=CC=Cc2cc[n+](CC)c3ccccc23)C(C)(C)c2c1ccc1ccccc21 [Experiment 7]
endpoint.name: Thermal Breakdown Temperature
test.value: 270.7
//
compound: CCCCN1C(=CC=Cc2ccc3ccccc3[n+]2CCCC)C(C)(C)c2c1ccc1ccccc21 [Experiment 2]
endpoint.name: Thermal Breakdown Temperature
test.value: 268.6

Return reported Thermal Breakdown Temperature; argument: CCCC[n+]1c(C=CC=C2N(C)c3ccc([N+](=O)[O-])cc3C2(C)C)ccc2ccccc21 [Experiment 4]
309.5

Return reported Thermal Breakdown Temperature; argument: CCCCN1C(=CC=Cc2ccc3ccccc3[n+]2CCCC)C(C)(C)c2cc(Cl)ccc21 [Experiment 1]
280.2

---

# assay.notes: UV-visible absorption spectroscopy
# Format: physicochemical
# study.conditions: UV-visible absorption spectrum
y if absorption wavelength is below 600 nm. n if not; exact matches included in n.

compound.structure.string: CCCCN1C(=CC=Cc2cc[n+](CC)c3ccccc23)C(C)(C)c2c1ccc1ccccc21
label: n
--
compound.structure.string: CCCCN1C(=CC=Cc2ccc3ccccc3[n+]2CCCC)C(C)(C)c2cc(Cl)ccc21
label: y
--
compound.structure.string: CC[n+]1ccc(C=CC=C2N(C)c3ccc([N+](=O)[O-])cc3C2(C)C)c2ccccc21
label: y

# next compound below
I'd appreciate it if you could check whether CCCC[n+]1c(C=CC=C2N(C)c3ccc([N+](=O)[O-])cc3C2(C)C)ccc2ccccc21 has absorption wavelength smaller than 600 nm.
y

---

# assay.notes: UV-visible absorption spectroscopy
# Type: physicochemical
# study.conditions: methanol
met if Maximum Absorption Wavelength is below 600 nm. not met if not; exact matches included in not met.

Before answering, review these 2 worked examples.
compound.structure.string: CCCC[n+]1c(C=CC=C2N(C)c3ccc([N+](=O)[O-])cc3C2(C)C)ccc2ccccc21
label: met
--
compound.structure.string: CC[n+]1ccc(C=CC=C2N(C)c3ccc([N+](=O)[O-])cc3C2(C)C)c2ccccc21
label: met

I'd appreciate it if you could check whether CCCCN1C(=CC=Cc2cc[n+](CC)c3ccccc23)C(C)(C)c2c1ccc1ccccc21 has Maximum Absorption Wavelength smaller than 600 nm.
not met

I'd appreciate it if you could check whether CCCCN1C(=CC=Cc2ccc3ccccc3[n+]2CCCC)C(C)(C)c2cc(Cl)ccc21 has Maximum Absorption Wavelength smaller than 600 nm.
met

---

# absorption wavelength per entry
# assay.notes: UV-visible absorption spectroscopy
# Type: physicochemical
# study.conditions: UV-visible absorption spectrum
# Source text: The results of the thermal gravametric analysis and the ultraviolent-visible absorption spectroscopy of the optical recording medium dyes obtained in the above experiment 1 to experiment 8 are summarized in Table 1. […]
Report the value in nm with no unit label.

Look over these answered cases.
molecule: CCCCN1C(=CC=Cc2cc[n+](CC)c3ccccc23)C(C)(C)c2cc(Cl)ccc21
unit.symbol: nm
absorption wavelength: 598.4
//
molecule: CCCCN1C(=CC=Cc2ccc3ccccc3[n+]2CCCC)C(C)(C)c2c1ccc1ccccc21 [Experiment 3]
unit.symbol: nm
absorption wavelength: 583.0

Let's switch to this molecule now.
Return reported absorption wavelength; argument: CCCCN1C(=CC=Cc2ccc3ccccc3[n+]2CCCC)C(C)(C)c2c1ccc1ccccc21 [Experiment 2]
583.0
